biological target: human S1P3 receptor (Homo sapiens); construct: expressed in transfected cells; assay: FLIPR calcium (Fluo-4) assay for activation or block of activation of human S1P3 receptor in T24 cells; assay type: cell-based; conditions: T24 cells stably expressing the human S1P3 receptor; tested over 0.61 nM to 10,000 nM
Give S1P3 % Inhibition for every item shown.
Response body: numeric value in %, unit text excluded.

Query: # input compound: CSC(=O)Nc1cc2c3c(c1)[C@@](C)(c1ccccc1)CCN3CC[C@@]2(C)c1ccccc1 ; wanted: its S1P3 % Inhibition
Result: 99

Query: Quick one: S1P3 % Inhibition for COC(=O)Nc1cc2c3c(c1)[C@](C)(c1ccc(F)cc1)CCN3CC[C@@]2(C)c1ccc(F)cc1 ?
Result: 96

Query: Quick one: S1P3 % Inhibition for C=CCNC(=O)Nc1cc2c3c(c1)C(c1ccccc1)CCN3CCC2c1ccccc1 (stereo not drawn) ?
Result: 100

Query: Record request: S1P3 % Inhibition value, item CCOC(=O)Nc1cc2c3c(c1)[C@](C)(c1ccccc1)CCN3CC[C@@]2(C)c1ccccc1
Result: 100

Query: Given the compound CNC(=O)c1cc2c3c(c1)C(c1ccccc1)CCN3CCC2c1ccccc1 (stereo not drawn) , what is its reported S1P3 % Inhibition?
Result: 100

Query: Reported S1P3 % Inhibition for O=C(NCc1ccoc1)Nc1cc2c3c(c1)C(c1ccccc1)CCN3CCC2c1ccccc1 (stereo not drawn) : what is it?
Result: 100

Query: S1P3 % Inhibition for CSC(=O)Nc1cc2c3c(c1)[C@](C)(c1ccc(F)cc1)CCN3CC[C@@]2(C)c1ccc(F)cc1 ?
Result: 97

Query: Entry CCCOC(=O)Nc1cc2c3c(c1)C(c1cccc(F)c1)CCN3CCC2c1cccc(F)c1 (stereo not drawn) has what S1P3 % Inhibition?
Result: 101

Query: So what does the record say about S1P3 % Inhibition for CCOC(=O)Nc1cc2c3c(c1)C(c1ccccc1)CCN3CCC2c1ccccc1 (stereo not drawn) ?
Result: 101

* * *

molecular target: human S1P3 receptor (Homo sapiens, UniProt Q99500); construct: expressed in transfected cells; experiment: FLIPR calcium (Fluo-4) assay for activation or block of activation of human S1P3 receptor in T24 cells; type: cell-based; conditions: T24 cells stably expressing the human S1P3 receptor; tested over 0.61 nM to 10,000 nM; read-out: S1P3 IC50
Sequence (Q99500 whole entry): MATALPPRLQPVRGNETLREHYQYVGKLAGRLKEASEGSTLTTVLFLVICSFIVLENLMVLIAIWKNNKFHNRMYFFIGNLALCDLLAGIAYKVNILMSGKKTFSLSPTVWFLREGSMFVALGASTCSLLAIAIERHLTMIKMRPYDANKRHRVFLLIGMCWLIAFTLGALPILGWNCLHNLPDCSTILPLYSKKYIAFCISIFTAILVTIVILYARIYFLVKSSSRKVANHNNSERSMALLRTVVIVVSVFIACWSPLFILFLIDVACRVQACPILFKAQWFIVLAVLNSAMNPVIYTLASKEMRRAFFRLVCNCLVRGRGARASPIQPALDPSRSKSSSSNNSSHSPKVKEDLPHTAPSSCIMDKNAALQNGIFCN
pIC50: −log10 of the molar value.
pIC50 of 7 or higher: yes (1). Under 7: no (0).

Query: Does the reported pIC50 for CSC(=O)Nc1cc2c3c(c1)C(c1ccccc1)CCN3CCC2c1ccccc1 (centres unmarked) fall at or above the 7 mark?
Result: yes (1)

Query: Assess whether reported pIC50 for CCCCNC(=O)c1cc2c3c(c1)C(c1ccccc1)CCN3CCC2c1ccccc1 (centres unmarked) sits at 7 or higher.
Result: no (0)

Query: Please indicate if the recorded pIC50 for CNC(=O)c1cc2c3c(c1)C(c1ccccc1)CCN3CCC2c1ccccc1 (centres unmarked) meets or exceeds 7.
Result: no (0)

Query: Kindly determine if pIC50 recorded for CCCSC(=O)Nc1cc2c3c(c1)C(c1ccccc1)CCN3CCC2c1ccccc1 (centres unmarked) is above or exactly 7.
Result: yes (1)

Query: pIC50 >= 7 for CCCOC(=O)Nc1cc2c3c(c1)[C@@](C)(c1ccccc1)CCN3CC[C@@]2(C)c1ccccc1 ?
Result: no (0)

Query: Does pIC50 meet or surpass 7 for CCCNC(=O)Nc1cc2c3c(c1)[C@](C)(c1ccccc1)CCN3CC[C@@]2(C)c1ccccc1 ?
Result: no (0)

Query: Can O=C(Nc1cc2c3c(c1)C(c1ccc(F)cc1)CCN3CCC2c1ccc(F)cc1)OCCF (centres unmarked) be said to have pIC50 at or above 7?
Result: yes (1)

* * *

molecular target: human S1P3 receptor (Homo sapiens, UniProt Q99500); construct: expressed in transfected cells; assay: FLIPR calcium (Fluo-4) assay for activation or block of activation of human S1P3 receptor in T24 cells; type: cell-based
Assignment: determine reported log10 of IC50 for the given molecules.
A value of 2 here means IC50 of 100 in nM, since values are log10.

Query: Which log10 of IC50 is listed for CSC(=O)Nc1cc2c3c(c1)[C@](C)(c1ccccc1)CCN3CC[C@@]2(C)c1ccccc1 ?
Result: 1.00

Query: Entry under review: CCCSC(=O)Nc1cc2c3c(c1)[C@](C)(c1ccccc1)CCN3CC[C@@]2(C)c1ccccc1 . Reported log10 of IC50?
Result: 0.70

Query: Record request: log10 of IC50 value, item CCCSC(=O)Nc1cc2c3c(c1)[C@](C)(c1ccc(F)cc1)CCN3CC[C@@]2(C)c1ccc(F)cc1
Result: 1.79

Query: Value lookup for log10 of IC50; key = CSC(=O)Nc1cc2c3c(c1)[C@@](C)(c1ccccc1)CCN3CC[C@@]2(C)c1ccccc1
Result: 0.60

Query: Please give the measured log10 of IC50 for this molecule: C[C@@]1(c2ccccc2)CCN2CC[C@@](C)(c3ccccc3)c3cc(NC(=O)OCCF)cc1c32
Result: 1.43

Query: Quick one: log10 of IC50 of CCCOC(=O)Nc1cc2c3c(c1)[C@](C)(c1ccccc1)CCN3CC[C@@]2(C)c1ccccc1 ?
Result: 1.86

Query: Need log10 of IC50, item CCCCOC(=O)Nc1cc2c3c(c1)[C@](C)(c1ccc(F)cc1)CCN3CC[C@@]2(C)c1ccc(F)cc1
Result: 1.93

* * *

Assignment: determine reported S1P3 % Inhibition for the given compounds.
molecular target: human S1P3 receptor (Homo sapiens); construct: expressed in transfected cells; assay: FLIPR calcium (Fluo-4) assay for activation or block of activation of human S1P3 receptor in T24 cells; format: cell-based; conditions: T24 cells stably expressing the human S1P3 receptor; tested over 0.61 nM to 10,000 nM
Supply the numeric figure in %, leaving out any unit text.

Query: State the recorded S1P3 % Inhibition for this entry: CCNC(=O)Nc1cc2c3c(c1)[C@](C)(c1ccccc1)CCN3CC[C@@]2(C)c1ccccc1
Result: 100

Query: Item C#CCOC(=O)Nc1cc2c3c(c1)C(c1ccccc1)CCN3CCC2c1ccccc1 (centres unmarked) has what recorded S1P3 % Inhibition?
Result: 97

Query: Look up S1P3 % Inhibition: CC(C)(C)NC(=O)Nc1cc2c3c(c1)[C@](C)(c1ccccc1)CCN3CC[C@@]2(C)c1ccccc1
Result: 98

Query: What does the data say about its S1P3 % Inhibition? Entry: CCCCNC(=O)Nc1cc2c3c(c1)C(c1ccccc1)CCN3CCC2c1ccccc1 (centres unmarked)
Result: 100

Query: Suppose we examine the compound COC(=O)Nc1cc2c3c(c1)C(c1ccccc1)CCN3CCC2c1ccccc1 (centres unmarked) ; what S1P3 % Inhibition value has been reported?
Result: 102

Query: Reported S1P3 % Inhibition, compound CN(C)C(=O)Nc1cc2c3c(c1)C(c1ccccc1)CCN3CCC2c1ccccc1 (centres unmarked) : ____
Result: 98

Query: Recorded S1P3 % Inhibition for CCCOC(=O)Nc1cc2c3c(c1)[C@@](C)(c1ccccc1)CCN3CC[C@@]2(C)c1ccccc1 , please?
Result: 98

Query: GET /values?readout=S1P3 % Inhibition&item= CSC(=O)Nc1cc2c3c(c1)C(c1ccccc1)CCN3CCC2c1ccccc1 (centres unmarked)
Result: 100

* * *

target: human S1P3 receptor (Homo sapiens); construct: expressed in transfected cells; assay: FLIPR calcium (Fluo-4) assay for activation or block of activation of human S1P3 receptor in T24 cells; assay type: cell-based; details: T24 cells stably expressing the human S1P3 receptor; tested over 0.61 nM to 10,000 nM
Consider the following molecules; for each one, report its S1P3 % Inhibition.
Provide the reading as a plain figure in %.

Query: Lab request: please report S1P3 % Inhibition under test system human S1P3 receptor (Homo sapiens) for CCCCNC(=O)c1cc2c3c(c1)C(c1ccccc1)CCN3CCC2c1ccccc1 (centres unmarked)
Result: 98

Query: # get_value(readout= S1P3 % Inhibition, system= human S1P3 receptor (Homo sapiens)) for CCCSC(=O)Nc1cc2c3c(c1)[C@](C)(c1ccccc1)CCN3CC[C@@]2(C)c1ccccc1
Result: 98

Query: For the record C[C@@]1(c2ccccc2)CCN2CC[C@@](C)(c3ccccc3)c3cc(NC(=O)OCCF)cc1c32 , what value of S1P3 % Inhibition is listed for human S1P3 receptor (Homo sapiens)?
Result: 100

Query: Which S1P3 % Inhibition is reported with human S1P3 receptor (Homo sapiens) for this entry: CCNC(=O)Nc1cc2c3c(c1)C(c1ccccc1)CCN3CCC2c1ccccc1 (centres unmarked) ?
Result: 101

Query: Find the measured S1P3 % Inhibition: item CSC(=O)Nc1cc2c3c(c1)[C@](C)(c1ccccc1)CCN3CC[C@@]2(C)c1ccccc1 , target or system human S1P3 receptor (Homo sapiens).
Result: 98

Query: Form field: S1P3 % Inhibition recorded for CCCCOC(=O)Nc1cc2c3c(c1)C(c1ccccc1)CCN3CCC2c1ccccc1 (centres unmarked) with human S1P3 receptor (Homo sapiens) (enter value)
Result: 101

Query: Which measured S1P3 % Inhibition belongs to COC(=O)Nc1cc2c3c(c1)C(c1cccc(F)c1)CCN3CCC2c1cccc(F)c1 (centres unmarked) , tested on human S1P3 receptor (Homo sapiens)?
Result: 101

Query: Reported S1P3 % Inhibition for human S1P3 receptor (Homo sapiens), given O=C(Nc1cc2c3c(c1)C(c1ccccc1)CCN3CCC2c1ccccc1)Oc1ccccc1 (centres unmarked) ?
Result: 91
